- Tested on: Tetranychus urticae
- procedure-summary: Insecticidal activity against pyridaben-resistant female Tetranychus urticae PRT-53 (two-spotted spider mite) in kidney bean assessed as mortality in 3 cm disks measured after 24 hr exposure by vapour-phase mortality bioassay
- Assay type: functional
# LC50 annotations
Numbers only here, please. The scale is microg/cm3.

molecule: C=CCc1ccc(O)c(OC)c1 [EUGENOL]
endpoint-name: LC50
number: 31.7
--
molecule: CC1CCC(C(C)C)C(O)C1 (stereo not drawn) [MENTHOL]
endpoint-name: LC50
number: 12.9
--
molecule: CC(C)=CCCC(C)CCO (stereo not drawn) [CITRONELLOL]
endpoint-name: LC50
number: 25.9
--
molecule: CC(=O)OC/C=C(\C)CCC=C(C)C [GERANYL ACETATE]
endpoint-name: LC50
number: 24.5
--
molecule: CC1=CC[C@@](O)(C(C)C)CC1
endpoint-name: LC50
number: 43.7

Turning now to a further molecule:
Give its LC50 value. Item: C=C(C)[C@@H]1CC[C@@H](C)C[C@H]1O [ISOPULEGOL]
27.7

---

# log10(LC50) annotations
- Test system: Tetranychus urticae
- procedure-summary: Insecticidal activity against pyridaben-resistant female Tetranychus urticae PRT-53 (two-spotted spider mite) in kidney bean assessed as mortality in 3 cm disks measured after 24 hr exposure by vapour-phase mortality bioassay
- Format: functional
Plainly stated, the numbers are log10 of LC50 given in microg/cm3.

Example entries and their recorded answers appear below.
molecule: CC1=CC=C(C(C)C)CC1
endpoint-name: log10(LC50)
number: 2.40
--
molecule: C=C1CC/C=C(\C)CC[C@@H]2[C@@H]1CC2(C)C [BETA-CARYOPHYLLENE]
endpoint-name: log10(LC50)
number: 1.65

Give its log10(LC50) value. Item: C=C/C(C)=C/CC=C(C)C [OCIMENE]
2.42

Give its log10(LC50) value. Item: CC(C)=CCC/C(C)=C/CO [GERANIOL]
1.52

Give its log10(LC50) value. Item: Cc1ccc(C(C)C)cc1 [P-CYMENE]
2.39

Give its log10(LC50) value. Item: C=C(C)[C@H]1CC=C(C)CC1 [D-LIMONENE]
2.46

Give its log10(LC50) value. Item: CC(=O)OCCC(C)CCC=C(C)C (configuration not stated) [CITRONELLYL ACETATE]
1.24

---

- Test system: Tetranychus urticae
- procedure-summary: Insecticidal activity against pyridaben-resistant female Tetranychus urticae PRT-53 (two-spotted spider mite) in kidney bean assessed as mortality in 3 cm disks measured after 24 hr exposure by vapour-phase mortality bioassay
- Assay type: functional
Criterion: LC50 strictly under 300 microg/cm3. Met: Criterion met. Not met: Criterion not met.

Worked set:
compound: C=CC(=C)CCC=C(C)C
discrete-label: Criterion not met

compound: C=CC(C)(O)CCC=C(C)C (stereo not given)
discrete-label: Criterion met

compound: CC12CCC(CC1)C(C)(C)O2
discrete-label: Criterion met

compound: CC(C)=CCC[C@@H](C)CC=O
discrete-label: Criterion met

Hello, is LC50 of the following compound strictly smaller than 300 microg/cm3? `CC1=CC[C@H](C(C)C)C=C1`
Criterion not met
